The values you see were collected from ChEMBL document CHEMBL1125253.

Biological target: Hemoglobin HbA (Homo sapiens) (UniProt P69905+P68871)
Sequence (P68871 2-147 partner limits assumed): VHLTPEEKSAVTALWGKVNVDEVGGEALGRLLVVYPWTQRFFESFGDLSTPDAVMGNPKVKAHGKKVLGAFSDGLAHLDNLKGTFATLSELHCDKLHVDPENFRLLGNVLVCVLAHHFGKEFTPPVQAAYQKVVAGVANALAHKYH
Sequence (P69905 2-142 limits assumed): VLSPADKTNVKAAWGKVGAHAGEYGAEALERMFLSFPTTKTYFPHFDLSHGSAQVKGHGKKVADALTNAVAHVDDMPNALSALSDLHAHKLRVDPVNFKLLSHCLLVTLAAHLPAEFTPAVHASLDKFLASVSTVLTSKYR
Experiment: Oxygen pressure in mmHg at which the […] hemoglobin solution (in presence of 10 mM compound) was 50% saturated with oxygen.
Assay type: protein-complex assay
measuredMetric: P50d (mmHg)

In [3]: df
Out[3]:
                                smilesinput  valueobserved
0  CC(C)(Oc1ccc(NC(=O)Nc2ccc(Cl)c(Cl)c2)cc1)C(=O)O             32
1   CC(C)(Oc1ccc(NC(=O)Cc2ccccc2)cc1)C(=O)O             35
2  CC(C)(Oc1ccc(CNC(=O)c2cccc(Cl)c2)cc1)C(=O)O             37
3  CC(C)(Oc1ccc(CNC(=O)c2ccccc2Cl)cc1)C(=O)O             28
4  CC(C)(Oc1ccc(CC(=O)Nc2ccc(Cl)c(Cl)c2)cc1)C(=O)O             65
5  CC(C)(Oc1ccc(CCNC(=O)c2ccccc2)cc1)C(=O)O             32

---

Target: Hemoglobin HbA (Homo sapiens) (UniProt P69905+P68871)
Assay: Oxygen pressure in mmHg at which the control hemoglobin solution (no compound) was 50% saturated with oxygen.
Format: protein-complex assay
Quick reference: P50c of the listed items.
measuredMetric: P50c (mmHg)

>>> print(df.to_string())
                                smilesinput  measuredmetric  valueobserved
0  CC(C)(Oc1ccc(CNC(=O)c2cc(Cl)cc(Cl)c2)cc1)C(=O)O            P50c             19
1   CC(C)(Oc1ccc(NC(=O)Cc2ccccc2)cc1)C(=O)O            P50c           19.5
2  Cc1ccc(NC(=O)Cc2ccc(OC(C)(C)C(=O)O)cc2)cc1            P50c             15
3  CC(C)(Oc1ccc(CC(=O)Nc2c(Cl)cccc2Cl)cc1)C(=O)O            P50c             18
4  CC(C)(Oc1ccc(NC(=O)Nc2ccc(Cl)c(Cl)c2)cc1)C(=O)O            P50c             18
5  CC(C)(Oc1ccc(CNC(=O)c2ccccc2Cl)cc1)C(=O)O            P50c             19
6  CC(C)(Oc1ccc(CCNC(=O)c2ccccc2)cc1)C(=O)O            P50c             18

---

Recorded P50d for the following compounds
Target: Hemoglobin HbA (Homo sapiens) (UniProt P69905+P68871)
Assay: Oxygen pressure in mmHg at which the […] hemoglobin solution (in presence of 10 mM compound) was 50% saturated with oxygen.
Format: protein-complex assay
measuredMetric: P50d

>>> print(df.to_string())
                                smilesinput                              targetentity  measuredmetric               valueobserved
0  CC(C)(Oc1ccc(CC(=O)Nc2ccc(Cl)cc2)cc1)C(=O)O  Hemoglobin HbA (Homo sapiens) (UniProt P69905+P68871)            P50d  52 mmHg [middle of 4 runs]
1  CC(C)(Oc1ccc(CC(=O)Nc2ccc(C(F)(F)F)cc2)cc1)C(=O)O  Hemoglobin HbA (Homo sapiens) (UniProt P69905+P68871)            P50d  44 mmHg [middle of 4 runs]
2  CC(C)(Oc1ccc(NC(=O)Cc2ccc(Cl)cc2)cc1)C(=O)O  Hemoglobin HbA (Homo sapiens) (UniProt P69905+P68871)            P50d  44 mmHg [middle of 5 runs]
3  CC(C)(Oc1ccc(CC(=O)Nc2cc(Cl)cc(Cl)c2)cc1)C(=O)O  Hemoglobin HbA (Homo sapiens) (UniProt P69905+P68871)            P50d  47 mmHg [middle of 5 runs]
4  CC(C)(Oc1ccc(CCNC(=O)c2ccc(Cl)cc2)cc1)C(=O)O  Hemoglobin HbA (Homo sapiens) (UniProt P69905+P68871)            P50d  31 mmHg [middle of 4 runs]
